# TARGET: Sphingosine 1-phosphate receptor 3 (Homo sapiens)
# Sequence (Q99500 whole entry): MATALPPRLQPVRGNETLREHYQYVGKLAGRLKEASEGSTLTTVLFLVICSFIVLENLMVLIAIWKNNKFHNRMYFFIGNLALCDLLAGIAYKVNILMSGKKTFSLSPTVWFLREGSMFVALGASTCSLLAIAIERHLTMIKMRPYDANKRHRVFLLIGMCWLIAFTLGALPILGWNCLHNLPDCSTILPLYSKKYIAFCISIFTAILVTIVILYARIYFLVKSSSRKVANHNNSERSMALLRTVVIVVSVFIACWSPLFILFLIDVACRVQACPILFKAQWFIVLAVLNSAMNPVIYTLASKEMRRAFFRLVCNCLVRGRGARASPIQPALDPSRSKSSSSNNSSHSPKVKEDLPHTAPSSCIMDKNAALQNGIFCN
# TEST: GTPgammaS Binding Assay: Compounds were loaded in a 384 Falcon v-bottom plate (0.5 ul/well in a 11 point, 3-fold dilution). Membranes prepared from S1P1/CHO cells or EDG3-Ga15-bla HEK293T cells were added to the compound plate (40 ul/well, final protein 3 ug/well) with MULTIDROP. [35S]GTP (1250 Ci/mmol, Perkin Elmer) was diluted in assay buffer: 20 mM HEPES, pH7.5, 10 mM MgCl2, 150 mM NaCl, 1 mM EGTA, 1 mM DTT, 10 uM GDP, 0.1% fatty acid free BSA, and 10 ug/ml Saponin to 0.4 nM. 40 ul of the [35S] GTP solution was added to the compound plate with a final concentration of 0.2 nM. The reaction was kept at room temperature for 45 min. At the end of incubation, all the mixtures in the compound plate were transferred to Millipore 384-well FB filter plates via the VELOCITY11 Vprep liquid handler. The filter plate was washed with water 4 times by using the manifold Embla plate washer and dried at 60° C. for 45 min. MicroScint 20 scintillation fluid (30 ul) was added to each well.
PROPERTY NAME: EC50

- COMPOUND STRUCTURE: "FC(F)(F)Oc1ccc(-c2noc(CCC3(c4ccccc4)CCCCC3)n2)cc1"
  TARGET: "Sphingosine 1-phosphate receptor 3 (Homo sapiens)"
  READING: "> 62 µM"

Origin of measurements: ChEMBL document CHEMBL3886365
